# credit: the supplement of paper PMC4466140

Target: AgSla1-D3
Test: SPOT peptide array binding signal intensity (averaged, normalized) (arbitrary units (background-subtracted, floor 0; scale differs between SH3 domains)); higher = stronger binding of the SH3 domain to the peptide
Use 10 as the dividing line for SPOT peptide array binding signal intensity, with the line itself on the Condition met side and lower values as Condition not met.

As a guide, the following entries are already answered.
> print(dat)
            binder  qualitative.label
1  KTRLRPAFIQQLWSS      Condition met
2  APERAVPILPPRNNV  Condition not met
3  KDKKTKPTPPPKPSH  Condition not met

**Query** Kindly determine if SPOT peptide array binding signal intensity recorded for GDHPKGPPPPPPPPD is above or exactly 10.
**Result** Condition met

**Query** Follow-up entry: AAAPKHAPPPVPNET
**Result** Condition met

**Query** What do you get for RRARRQMGIPTISQV ?
**Result** Condition met
